Taken from PubChem BioAssay AID1963860.

Each entry below carries its recorded viability, T/C.
# System: CN0375-F725-PDC KRAS spheroid viability;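 note: spheroids exposed to agents for 7 days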
# PROCEDURE_SUMMARY: Anticancer human tumor CN0375-F725-PDC patient-derived colon carcinoma cell line growth inhibition [KRAS2]
# CONDITION_PARAMETERS: second compound 0.1 µM; first compound 0.01 µM; active compounds read low; spheroids with HUVEC and MSC
ENDPOINT_NAME: viability, T/C (%)

[[record]]
compound = "CCN1CCN(Cc2ccc(Nc3ncc(F)c(-c4cc(F)c5nc(C)n(C(C)C)c5c4)n3)nc2)CC1 + CNCc1ccccc1-c1csc(C(C)Nc2nc(C)nc3cc(OC)c(OC)cc23)c1"
experimental_value = 91.5

[[record]]
compound = "CN(C)C/C=C/C(=O)Nc1cc2c(Nc3ccc(F)c(Cl)c3)ncnc2cc1O[C@H]1CCOC1 + COc1cc2nc(C)nc(NC(C)c3cc(N)cc(C(F)(F)F)c3)c2cc1OC1CCOC1"
experimental_value = 83.7

[[record]]
compound = "CC(=O)Nc1cccc(-n2c(=O)n(C3CC3)c(=O)c3c(Nc4ccc(I)cc4F)n(C)c(=O)c(C)c32)c1 + CNCc1ccccc1-c1csc(C(C)Nc2nc(C)nc3cc(OC)c(OC)cc23)c1"
experimental_value = 42.3

[[record]]
compound = "CC(=O)OC12COC1CC(O)C1(C)C(=O)C(O)C3=C(C)C(OC(=O)C(O)C(NC(=O)OC(C)(C)C)c4ccccc4)CC(O)(C(OC(=O)c4ccccc4)C21)C3(C)C (stereo not given) + CC1OCC2(CCN(c3cnc(Sc4ccnc(N)c4Cl)c(N)n3)CC2)C1N"
experimental_value = 93.5

[[record]]
compound = "Cn1ncnc1[C@H]1c2n[nH]c(=O)c3cc(F)cc(c23)N[C@@H]1c1ccc(F)cc1 + CNCc1ccccc1-c1csc(C(C)Nc2nc(C)nc3cc(OC)c(OC)cc23)c1"
experimental_value = 95.7

